Listed here: items and their measured TGI.
# Tested on: HCC-2998 colon
# run.description: NCI tumour cell line growth inhibition, 48 h

# compound, measured.on, TGI
records = [
    ("CNc1nc(N)nc(Nc2ccc(I)cc2)c1N=O", "HCC-2998 colon", "> 100 µM"),
    ("COc1cc2c(cc1OCCCN1CCN(CCCOc3cc4c(cc3OC)C(=O)N3CC(F)(F)C[C@H]3C=N4)CC1)N=C[C@@H]1CC(F)(F)CN1C2=O", "HCC-2998 colon", "19.4 µM"),
    ("Cc1cc(C)nc(NS(=O)(=O)c2ccc(Nc3c4ccccc4nc4c(C(=O)N5CCN(CCO)CC5)cccc34)cc2)n1", "HCC-2998 colon", "> 100 µM"),
    ("COc1cc(C2c3cc4c(cc3[C@@H](Nc3ccccc3)C3COC(=O)[C@H]23)OCO4)cc(OC)c1O (some centres not stated)", "HCC-2998 colon", "3.35 µM"),
    ("C[C@@H]1CCC2[C@@H](C)[C@@H](O[C@H]3O[C@@H]4O[C@@]5(C)CCC6[C@H](C)CCC([C@H]3C)[C@]64OO5)O[C@@H]3O[C@@]4(C)CCC1[C@@]23OO4 (some centres not stated)", "HCC-2998 colon", "> 25 µM"),
    ("COC(=O)c1ccccc1CC1Cc2cccc(C)c2C1=O (configuration not stated)", "HCC-2998 colon", "> 100 µM"),
    ("O[C@H]1[C@H](O)[C@@H](O)CN2CC[C@H](O)[C@H]12", "HCC-2998 colon", "> 100 µM"),
    ("COc1cc2c(cc1OCCCCCN1CCN(c3ncnc4ccccc34)CC1)N=CC1CCCN1C2=O (configuration not stated)", "HCC-2998 colon", "0.0349 µM"),
    ("OC(C#CCN1CCCC1)(c1ccccc1)c1ccccc1Cl (configuration not stated)", "HCC-2998 colon", "40.4 µM"),
    ("O=C(O)c1cccc(S(=O)(=O)NN2C(=O)CSC2c2ccc(Cl)cc2Cl)c1 (configuration not stated)", "HCC-2998 colon", "> 100 µM"),
    ("O=S(=O)(OI(OI(OS(=O)(=O)C(F)(F)F)c1ccccc1)c1ccccc1)C(F)(F)F", "HCC-2998 colon", "> 100 µM"),
    ("Cc1nc2sccn2c1-c1nc2sccn2c1/C=C1/C(=O)Nc2ccccc21", "HCC-2998 colon", "29.8 µM"),
    ("Clc1ccc(C=NC23CC4CC(CC(C4)C2)C3)c(Cl)c1", "HCC-2998 colon", "> 10 µM"),
    ("Cc1ccc(/C=C2/N=C(N/N=C\\C(O)C(O)C(O)C(O)CO)NC2=O)cc1 (configuration not stated)", "HCC-2998 colon", "> 100 µM"),
    ("COc1ccc(-c2nc3ccccc3c(=S)n2OC(C)=O)cc1", "HCC-2998 colon", "> 25 µM"),
    ("Cc1ccsc1/C=N/Nc1cnccn1", "HCC-2998 colon", "> 100 µM"),
    ("Cc1cc(C)nc(NC(=S)Nc2ccc([N+](=O)[O-])cc2)c1", "HCC-2998 colon", "> 100 µM"),
    ("CCOC(=O)c1c(C)c2c(n1Cc1ccccc1)CSCC2=O", "HCC-2998 colon", "> 100 µM"),
    ("Cc1ccc2c(c1)c1ccc3c(c1n2C)C(=O)C=CC3=O", "HCC-2998 colon", "> 10 µM"),
    ("COc1ccc(CNc2c3ccccc3nc3ccccc23)cc1F", "HCC-2998 colon", "5.27 µM"),
    ("CC(C)=CCC1=C(O)c2ccccc2C(=O)C1=O", "HCC-2998 colon", "> 100 µM"),
    ("CCCCCCn1c(-c2ccc(C(=O)O/N=C(\\N)c3ccc4c(c3)OCO4)cc2)nc(-c2ccccc2)c1-c1ccccc1", "HCC-2998 colon", "10.4 µM"),
    ("CCCCCCCCSC1=C(Cl)C(=O)C(OC)=C(OC)C1=O", "HCC-2998 colon", "32.4 µM"),
    ("CO[C@@H]1CC[C@]2(C)OC[C@H](C)[C@@H]3C[C@@H](C)[C@@H](OC(C)=O)[C@@H]4[C@H]3[C@@H]2O[C@H]4C[C@@]1(C)O", "HCC-2998 colon", "> 100 µM"),
    ("c1ccc(C(C(=Nc2ccc(Cc3ccc(N=C(C(c4ccccc4)c4ccccc4)N4CC4)cc3)cc2)N2CC2)c2ccccc2)cc1", "HCC-2998 colon", "23.6 µM"),
    ("CCOC(=O)/C(C(C)=O)=C(\\OC(C)=O)c1ccncc1C(=O)O", "HCC-2998 colon", "> 100 µM"),
    ("O=C1C=C(Nc2ccc(Cl)cc2C(=O)c2ccccc2)c2ccccc2C1=O", "HCC-2998 colon", "> 100 µM"),
    ("C=CC1(C)CC(=O)C2(O)C(C)(O1)C(OC(C)=O)C(O)C1C(C)(C)CCC(O)C12C (configuration not stated)", "HCC-2998 colon", "> 150 µM"),
    ("CC(C)C1CN(C(=O)OCc2ccccc2)C2N1C(=O)C2(C)OCc1ccccc1 (configuration not stated)", "HCC-2998 colon", "> 100 µM"),
    ("COc1ccc(-c2cc(=O)oc3c4c(ccc23)OCN(Cc2ccc(F)cc2)C4)cc1", "HCC-2998 colon", "37 µM"),
    ("COc1ccc2c(=O)oc3c(OC)cc(CCN(C)C)c4c(=O)oc1c2c34", "HCC-2998 colon", "25.2 µM"),
    ("CCC(C)(C)n1c(C)nc2c1C(=O)c1ccccc1C2=O", "HCC-2998 colon", "> 100 µM"),
    ("CNc1cc2oc(=O)cc(C)c2cc1C", "HCC-2998 colon", "> 100 µM"),
    ("[N-]=[N+]=CC(=O)OC(CCl)CCl", "HCC-2998 colon", "> 100 µM"),
    ("O=C1C=C(c2c(O)ccc3ccccc23)c2cc(O)ccc2C1=O", "HCC-2998 colon", "33.6 µM"),
    ("Cc1nc2ccccc2c(-n2cccn2)c1CCn1cccn1", "HCC-2998 colon", "> 100 µM"),
    ("CCOC(=O)Nc1c(C)nc2ccccn12", "HCC-2998 colon", "> 100 µM"),
    ("Cc1cc(C(=O)CSC(=S)SC(C)(C)C)ccc1Cl", "HCC-2998 colon", "30.3 µM"),
    ("NC(=O)c1cc(I)ccc1NC(=O)/C=C/c1ccccc1", "HCC-2998 colon", "30.9 µM"),
    ("O=C(NN1C(=O)CS(=O)(=O)C1c1ccc(C(F)(F)F)cc1)c1ccncc1 (configuration not stated)", "HCC-2998 colon", "> 100 µM"),
    ("CSC[C@H](NC(=O)COc1cccc2cnccc12)C(=O)NC(Cc1ccccc1)C(O)C(=O)N1CSC[C@H]1C(=O)NC(C)(C)C (some centres not stated)", "HCC-2998 colon", "> 100 µM"),
    ("CCOC(=O)CNC(=O)NC12CC3CC(CC(C3)C1)C2", "HCC-2998 colon", "319 µM"),
]
